SYSTEM NAME: T1, human recombinant GIP receptor (human, UniProt P48546 22-466)
T1 construct: whole, on cells; Membranes of CHO-K1 cells expressing the receptor; also called hGIP receptor
T1 sequence (looked up): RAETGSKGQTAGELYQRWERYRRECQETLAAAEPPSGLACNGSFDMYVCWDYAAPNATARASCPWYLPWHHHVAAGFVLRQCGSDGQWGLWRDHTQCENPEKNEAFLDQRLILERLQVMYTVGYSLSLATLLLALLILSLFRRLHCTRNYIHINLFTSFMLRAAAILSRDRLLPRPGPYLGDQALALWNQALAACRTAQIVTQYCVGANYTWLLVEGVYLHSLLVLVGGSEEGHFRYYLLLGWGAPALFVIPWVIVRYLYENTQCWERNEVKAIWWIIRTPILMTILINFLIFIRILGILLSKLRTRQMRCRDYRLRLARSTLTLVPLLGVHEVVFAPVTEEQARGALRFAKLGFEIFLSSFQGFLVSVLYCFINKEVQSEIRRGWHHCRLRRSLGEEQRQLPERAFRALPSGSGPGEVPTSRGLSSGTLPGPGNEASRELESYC
EXPERIMENTAL DETAILS: [125I]GIP competition, membranes of CHO-K1 cells expressing human GIP receptor
Where no end group is shown, it is not given here. [ ]: non-standard residue; d: D form. The star is where a group is joined. Psu = N-propylsuccinimide on the Cys sulfur (from N-propylmaleimide), CCCN1C(=O)CC(*)C1=O; Ac6c = NC1(C(=O)O)CCCCC1; Nle = CCCC[C@H](N)C(=O)O; Aib = CC(C)(N)C(=O)O
MEASURED METRIC: pKi
Friendly reminder that pKi comes from taking -log10 of the concentration in mol/L.

Sample records with pKi:
Qu. Read off the recorded pKi for Y[Aib]EGTF[Ac6c]SDYSIA[Nle]DKIHQQDFVNWLLAQKGKKNDWKHN[Ac6c]TQ-OH [(Aib^2, A6c^7, 40, Nle^14)hGIP(1-42)-OH]
Ans. 8.96

Qu. Read off the recorded pKi for YXEGTFXSDYSIAXDKIHQQDFVNWLLAQK (Aib at 2; A6c at 7 and 14; C-terminal amide) [(Aib^2, A6c^7, 14)hGIP(1-30)-NH2]
Ans. 8.92

New cases:
Qu. Indicate its recorded pKi; the binder in question is YXEGTFISDYXIAXDKIHQQDFVNWLLAQK (Aib at 2; A5c at 11; Nle at 14; C-terminal amide) [(Aib^2, A5c^11, Nle^14)hGIP(1-30)-NH2]
Ans. 9.80

Qu. Tell me measured pKi for Y[Aib]EGTF[Ac6c]SDYSIAMDKIHQQDFVNWLLAQKC(Psu)KKNDWKHNITQ-OH [[Aib^2, A6c^7, Cys(Psu)^31]hGIP(1-42)-OH] please.
Ans. 7.12

Qu. Name the recorded pKi of the binder listed here: YXPGTFISDYXIAXDKIHQQDFVNWLLAQK (Aib at 2; A5c at 11; A6c at 14; C-terminal amide) [(Aib^2, Pro^3, A5c^11, A6c^14)hGIP(1-30)-NH2]
Ans. 7.47

Qu. Answer with the recorded pKi for the binder listed here: Y[Aib]EGTF[Ac6c]SDYSIAMDKIHQQDFVNWLLAQKGKC(Psu)NDWKHNITQ-OH [[Aib^2, A6c^7, Cys(Psu)^33]hGIP(1-42)-OH]
Ans. 8.82

Qu. Give pKi for the following binder: YXEGXFISDYSIAMDKIHQQDFVNWLLAQK (Aib at 2; A5c at 5; C-terminal amide) [(Aib^2, A5c^5)hGIP(1-30)-NH2]
Ans. 8.69

Qu. Determine its reported pKi: Y[Aib]EGTF[Ac6c]SDYSIAMDKIHQQDFVNWLLAQKGKKNDWKHNIC(Psu)Q-OH (The synthesis text lists Fmoc-Ala-OH, not Aib, at the cycle for position 2) [[Aib^2, A6c^7, Cys(Psu)^41]hGIP(1-42)-OH]
Ans. 7.20

Qu. Report measured pKi; entry is YXEGTFISDYXIAXDKIHQQDFVNWLLAQKGKKNDWKHNITQ (Aib at 2 and 11; Nle at 14; C-terminal free acid) [(Aib^2, 11, Nle^14)hGIP(1-42)-OH]
Ans. 9.54

Qu. Return pKi for the following binder: Y[Aib]EGTF[Aib]SDYSIAMDKIHQQDFVNWLLAQKGKKNDWKHNITQ-OH [(Aib^2, 7)hGIP(1-42)-OH]
Ans. 9.12

Qu. Using the record for Y[Aib]EGTF[Ac6c]SDYSIAMDKIHQQDFVNWLLAQKGKKNDWKC(Psu)NITQ-OH [[Aib^2, A6c^7, Cys(Psu)^38]hGIP(1-42)-OH] , state its measured pKi.
Ans. 8.30

Qu. Please look at this binder and report its pKi: YXEGXFISDYSIAMDKIHQQDFVNWLLAQK (Aib at 2 and 5; C-terminal amide) [(Aib^2, 5)hGIP(1-30)-NH2]
Ans. 8.48
